// data source = patent US20070142462A1

Test system: M1619 cells
Run Description: Ferricytochrome c reduction (O2− generation) by M1619 cells
Type: cell-based, human
Conditions: 160 μM ferricytochrome c; capsaicin 100 μM; dicumarol 250 μM pre-treatment 60 min; other inhibitors as
Assay Endpoint: ferricytochrome c reduction by M1619 cells

O=c1oc2ccccc2c(O)c1Cc1c(O)c2ccccc2oc1=O	significantly decreased
COc1cc(CNC(=O)CCCC/C=C/C(C)C)ccc1O [capsaicin, 8-methyl-N-vanillyl-6-noneamide]	significantly decreased
